Ref: patent US11485729B2

- PROTOCOL SUMMARY: Metabolic stability evaluation in human liver microsomes
- Format: in vitro ADME
- CONDITION CONTEXT: pH 7.4, Human liver microsome, 0.5 mg/mL protein, 1 μM compound
EXPERIMENTAL ENDPOINT: half-life at 1 μM

// solved cases for half-life at 1 μM follow
>  <MOLECULE>
[2H]c1c(Cl)c(Oc2cc(C(C([2H])([2H])[2H])C([2H])([2H])[2H])c(=O)[nH]n2)c(Cl)c([2H])c1-n1nc(C#N)c(=O)[nH]c1=O

>  <half-life at 1 μM>
> 16.7 h

$$$$
>  <MOLECULE>
[2H]C([2H])([2H])C(c1cc(Oc2c(Cl)cc(-n3nc(C#N)c(=O)[nH]c3=O)cc2Cl)n[nH]c1=O)C([2H])([2H])[2H]

>  <half-life at 1 μM>
> 16.7 h

$$$$
>  <MOLECULE>
CC(C)c1cc(Oc2c(Cl)cc(-n3nc(C#N)c(=O)[nH]c3=O)cc2Cl)n[nH]c1=O [MGL-3196, reference compound]

>  <half-life at 1 μM>
< 8.33 h

$$$$
>  <MOLECULE>
[2H]c1c(Cl)c(Oc2cc(C(C)C)c(=O)[nH]n2)c(Cl)c([2H])c1-n1nc(C#N)c(=O)[nH]c1=O

>  <half-life at 1 μM>
> 16.7 h

$$$$

The molecule listed as [2H]C([2H])([2H])C(C)c1cc(Oc2c(Cl)cc(-n3nc(C#N)c(=O)[nH]c3=O)cc2Cl)n[nH]c1=O (centres unmarked) has a reported half-life at 1 μM of > 16.7 h

* * *

- PROTOCOL SUMMARY: Metabolic stability evaluation in human liver microsomes
- Format: in vitro ADME
- CONDITION CONTEXT: pH 7.4, Human liver microsome, 0.5 mg/mL protein, 1 μM compound
Reported microsomal CLint at 1 μM is given for each of the following compounds.

>  <COMPOUND>
[2H]c1c(Cl)c(Oc2cc(C(C([2H])([2H])[2H])C([2H])([2H])[2H])c(=O)[nH]n2)c(Cl)c([2H])c1-n1nc(C#N)c(=O)[nH]c1=O

>  <microsomal CLint at 1 μM>
0.1 to 2 µL/min/mg

$$$$
>  <COMPOUND>
[2H]C([2H])([2H])C(c1cc(Oc2c(Cl)cc(-n3nc(C#N)c(=O)[nH]c3=O)cc2Cl)n[nH]c1=O)C([2H])([2H])[2H]

>  <microsomal CLint at 1 μM>
0.1 to 2 µL/min/mg

$$$$

The compound listed as `[2H]c1c(Cl)c(Oc2cc(C(C)C)c(=O)[nH]n2)c(Cl)c([2H])c1-n1nc(C#N)c(=O)[nH]c1=O` has a reported microsomal CLint at 1 μM of 0.1 to 2 µL/min/mg

The compound listed as CC(C)c1cc(Oc2c(Cl)cc(-n3nc(C#N)c(=O)[nH]c3=O)cc2Cl)n[nH]c1=O [MGL-3196, reference compound] has a reported microsomal CLint at 1 μM of 2.5 to 3 µL/min/mg

The compound listed as [2H]C([2H])([2H])C(C)c1cc(Oc2c(Cl)cc(-n3nc(C#N)c(=O)[nH]c3=O)cc2Cl)n[nH]c1=O (centres unmarked) has a reported microsomal CLint at 1 μM of 0.1 to 2 µL/min/mg
